target: Substance-K receptor (Oryctolagus cuniculus, UniProt P79218); assay: Antagonist activity at NK-2 tachykinin receptors in rabbit pulmonary artery; type: functional; conditions: read-out: pA2 (converted)
Sequence (P79218 whole entry): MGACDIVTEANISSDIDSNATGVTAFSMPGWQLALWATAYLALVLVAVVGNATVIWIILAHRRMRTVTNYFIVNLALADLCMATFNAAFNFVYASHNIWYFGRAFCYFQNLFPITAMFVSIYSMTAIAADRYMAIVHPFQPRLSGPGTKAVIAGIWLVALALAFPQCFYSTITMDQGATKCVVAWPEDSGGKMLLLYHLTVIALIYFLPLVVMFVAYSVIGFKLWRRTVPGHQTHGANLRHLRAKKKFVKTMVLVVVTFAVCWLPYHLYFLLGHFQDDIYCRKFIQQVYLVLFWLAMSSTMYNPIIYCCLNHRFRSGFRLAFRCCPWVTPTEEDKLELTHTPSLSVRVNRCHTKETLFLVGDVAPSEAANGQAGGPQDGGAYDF
Assign log10(Kb) to each entry below.
Hey, these are logged values: log10 of Kb, nM being the unit before logging.

Below, each entry is followed by its recorded log10(Kb) result.
[
  {
    "structureString": "CC(C)C[C@@H]1CN[C@@H](CC(C)C)C(=O)N[C@@H](CCC(N)=O)C(=O)N[C@@H](Cc2c[nH]c3ccccc23)C(=O)N[C@@H](Cc2ccccc2)C(=O)NCCC(=O)N1",
    "log10(Kb)": 2.05
  },
  {
    "structureString": "CSCC[C@@H]1NC[C@@H](CC(C)C)NC(=O)CCNC(=O)[C@H](Cc2ccccc2)NC(=O)[C@H](Cc2c[nH]c3ccccc23)NC(=O)[C@H](CCC(N)=O)NC1=O",
    "log10(Kb)": 2.35
  },
  {
    "structureString": "CC(C)C[C@@H]1CN[C@@H](CC(N)=O)C(=O)N[C@@H](CCC(N)=O)C(=O)N[C@@H](Cc2c[nH]c3ccccc23)C(=O)N[C@@H](Cc2ccccc2)C(=O)NCCC(=O)N1",
    "log10(Kb)": 2.84
  }
]

Hi team, please reply with log10(Kb) for each item in this list.
1. CC(C)C[C@@H]1CN[C@@H](CCCCNC(=O)OCc2ccccc2)C(=O)N[C@@H](CCC(N)=O)C(=O)N[C@@H](Cc2c[nH]c3ccccc23)C(=O)N[C@@H](Cc2ccccc2)C(=O)NCCC(=O)N1
2. CC(C)C[C@@H]1CN[C@@H](CCC(=O)NCc2ccccc2)C(=O)N[C@@H](CCC(N)=O)C(=O)N[C@@H](Cc2c[nH]c3ccccc23)C(=O)N[C@@H](Cc2ccccc2)C(=O)NCCC(=O)N1

**Result**
[2.11, 1.19]
